target: Human α2δ-1 subunit of Cav2.2 calcium channel (Homo sapiens, UniProt P54289); experiment: biochemical; assay type: binding
Sequence (P54289 25-1103): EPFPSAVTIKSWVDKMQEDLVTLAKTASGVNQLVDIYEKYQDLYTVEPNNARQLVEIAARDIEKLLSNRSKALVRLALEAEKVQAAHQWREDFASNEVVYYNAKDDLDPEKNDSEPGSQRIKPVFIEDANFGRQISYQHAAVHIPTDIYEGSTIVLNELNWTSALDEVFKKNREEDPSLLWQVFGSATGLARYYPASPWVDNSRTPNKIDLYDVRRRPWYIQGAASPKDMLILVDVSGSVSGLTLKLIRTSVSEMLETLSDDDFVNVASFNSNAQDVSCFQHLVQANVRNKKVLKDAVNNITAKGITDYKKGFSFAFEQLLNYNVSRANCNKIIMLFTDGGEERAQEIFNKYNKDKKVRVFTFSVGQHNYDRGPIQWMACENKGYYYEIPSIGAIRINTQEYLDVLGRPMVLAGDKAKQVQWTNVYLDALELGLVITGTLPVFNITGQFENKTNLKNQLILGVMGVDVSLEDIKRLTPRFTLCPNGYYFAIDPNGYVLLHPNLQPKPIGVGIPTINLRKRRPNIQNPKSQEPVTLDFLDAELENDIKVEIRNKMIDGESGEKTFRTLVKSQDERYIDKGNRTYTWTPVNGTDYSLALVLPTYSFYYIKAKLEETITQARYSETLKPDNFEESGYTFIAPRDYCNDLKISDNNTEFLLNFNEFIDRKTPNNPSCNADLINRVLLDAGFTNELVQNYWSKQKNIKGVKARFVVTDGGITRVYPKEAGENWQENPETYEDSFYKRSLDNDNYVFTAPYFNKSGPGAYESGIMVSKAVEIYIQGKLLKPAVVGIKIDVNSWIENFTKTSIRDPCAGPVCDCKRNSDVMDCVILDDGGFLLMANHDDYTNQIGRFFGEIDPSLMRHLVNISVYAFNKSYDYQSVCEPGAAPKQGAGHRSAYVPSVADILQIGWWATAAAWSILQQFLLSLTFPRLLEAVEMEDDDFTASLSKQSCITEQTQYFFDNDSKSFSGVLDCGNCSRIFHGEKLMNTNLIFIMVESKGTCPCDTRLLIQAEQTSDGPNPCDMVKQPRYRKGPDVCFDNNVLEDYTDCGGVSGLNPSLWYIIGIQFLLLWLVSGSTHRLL
Parameter: Ki

So, CCCC(c1nc2cccc(O)c2c(=O)n1CC)N1C[C@@H](C)N[C@@H](C)C1 (some centres unmarked) [Example 15] ? Its Ki was < 500 nM

So, CCC[C@@H](c1nc2cc(F)c(Br)cc2c(=O)n1C)N1CCN[C@@H](C)C1 [Example 63] ? Its Ki was > 5000 nM

So, CCC[C@H](c1nc2ccccc2c(=O)n1C)N1C[C@@H](C)N[C@@H](C)C1 [Example 32] ? Its Ki was < 500 nM

So, CCCC(c1nc2cccc(Br)c2c(=O)n1CC)N1C[C@@H](C)N[C@@H](C)C1 (some centres unmarked) [Example 14] ? Its Ki was < 500 nM

So, CCCC(c1nc2cccnc2c(=O)n1CC)N1C[C@@H](C)N[C@@H](C)C1 (some centres unmarked) [Example 27] ? Its Ki was < 500 nM

So, CCCC(c1nc2c(C)cc(Br)cc2c(=O)n1CC)N1CCNCC1 (centres unmarked) [Example 89] ? Its Ki was > 5000 nM

So, CCCC(c1nc2ccc(OC)cc2c(=O)n1CCOC)N1C[C@@H](C)N[C@@H](C)C1 (some centres unmarked) [Example 120] ? Its Ki was < 500 nM

So, CCCC(c1nc2c(F)cc(Br)cc2c(=O)n1CC)N1CCNCC1 (centres unmarked) [Example 87] ? Its Ki was 500 to 5000 nM

So, CCCC(c1nc2ccc(Br)c(C)c2c(=O)n1CC)N1C[C@@H](C)N[C@@H](C)C1 (some centres unmarked) [Example 21] ? Its Ki was < 500 nM

So, CCC[C@H](c1nc2ccc(NCC[C@@]3(c4ccccn4)CCOC4(CCCC4)C3)cc2c(=O)n1CC)N1C[C@@H](C)N[C@@H](C)C1 [Example 160] ? Its Ki was < 500 nM

So, CCC[C@@H](c1nc2c(F)cc(Br)cc2c(=O)n1CC)N1CCN[C@H](C)C1 [Example 48] ? Its Ki was > 5000 nM

So, CCC[C@@H](c1nc2ccc(Br)cc2c(=O)n1CC)N1CCN(C)[C@H](C)C1 [Example 110] ? Its Ki was > 5000 nM

So, CCCC(c1nc2ccccc2c(=O)n1CCOC)N1CCNCC1 (centres unmarked) [Example 117] ? Its Ki was 500 to 5000 nM

So, CCCC(c1nc2cc(C)ccc2c(=O)n1CC)N1C[C@@H](C)N[C@@H](C)C1 (some centres unmarked) [Example 4] ? Its Ki was < 500 nM

So, CCC[C@H](c1nc2c(F)cc(Br)cc2c(=O)n1CC)N1CCN[C@@H](C)C1 [Example 51] ? Its Ki was < 500 nM

So, CCC[C@@H](c1nc2ccc(Br)cc2c(=O)n1CC)[C@H]1CCNCC1(F)F [Example 195] ? Its Ki was < 500 nM

So, CCC[C@H](c1nc2ccc(F)cc2c(=O)n1CC)N1CCN[C@@H](C)C1 [Example 214] ? Its Ki was < 500 nM
